target: T1, cynomolgus (Macaca fascicularis) BCMA on cells (cynomolgus (Macaca fascicularis), UniProt Q02223 1-184 (human entry)); assay: FACS, Cyno BCMA
T1 construct: also called cyno BCMA; cynomolgus BCMA
T1 sequence (Q02223 other isoform, or with tags, fused parts or gaps): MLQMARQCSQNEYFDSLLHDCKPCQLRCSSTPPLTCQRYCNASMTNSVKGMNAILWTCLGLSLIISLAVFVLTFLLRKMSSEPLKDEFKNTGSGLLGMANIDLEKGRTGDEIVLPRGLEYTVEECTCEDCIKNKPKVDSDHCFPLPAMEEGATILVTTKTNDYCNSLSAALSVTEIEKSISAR
PROPERTY: MFI
The reply should read as a number followed by its unit.

Value lookup for MFI; key = 35D2 (antibody, V domains shown, IgG2 or IgG4, purified from hybridoma supernatant; also called 35D2.1; Ab-15) VH: EVQLLESGGALVQPGGSLRLSCAASGFTFSSYAMNWVRQAPGKGLEWVSAISVGGGTYYADSVKGRFTISRDNSKNTLYLHVNSLRAEDTAVYYCAKDQVTMVRGVWYYYGLDVWGQGTTVTVSS VL: VIVLIQSPLSLPVTPGEPASISCRSSQSLLHSNGNNYLDWYLQKPGQSPHLLISLGSNRTSGVPDRFSGSGSGTDFTLKISRVEAEDVGFYYCMQALQPPRRFGQGTKLEIKR
198000 MFI

Value lookup for MFI; key = 37B2 (antibody, V domains shown, IgG2 or IgG4, purified from hybridoma supernatant; also called 37B2.1; Ab-16) VH: EVQLLESGGALVQPGGSLRLSCAASGFTFSNYAMNWVRQAPGKGLEWVSAISVGGDTYYADSVKGRFTISRDNSKNTLYLHVNSLSAEDSAVYYCAKDQVTLVRGVWYYYGLDVWGQGTTVTVSS VL: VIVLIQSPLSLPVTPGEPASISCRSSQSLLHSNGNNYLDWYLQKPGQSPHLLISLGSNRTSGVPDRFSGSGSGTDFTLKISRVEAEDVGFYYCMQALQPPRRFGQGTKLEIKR
136000 MFI

Value lookup for MFI; key = 32B5 (antibody, V domains shown, IgG2 or IgG4 as purified from hybridoma (32B5.1); later converted to human IgG1; an engineered version may be meant there; also called 32B5.1; Ab-10) VH: EVQLLESGGALVQPGGSLRLSCAASGFTFSSYAMNWVRQAPGKGLEWVSAISVGGDTYYADSVKGRFTISRDNSKNTLYLHVNSLSAEDSAVYYCAKDQVTLVRGVWYYYGLDVWGQGTTVTVSS VL: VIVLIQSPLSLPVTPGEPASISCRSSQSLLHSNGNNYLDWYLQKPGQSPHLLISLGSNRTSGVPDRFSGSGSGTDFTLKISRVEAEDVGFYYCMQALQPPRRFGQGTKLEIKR
257000 MFI
